assay: PK of compound of Formula (Ia) after single subcutaneous dose of solution formulations in Wistar Han rats; assay type: in vivo; settings: male, Wistar Han, rat, plasma, sc, 50 mg/kg, 2688 h; mean, n = 3 rats; SC 50 mg/kg; solution V, 300 mg/mL
Result type: concentration at 2688 h (nM)
Your answer should be a plain number; it is taken to be in nM.

Measured concentration at 2688 h, CC(C)(C#Cc1ccc(-c2ccc(Cl)c3c(NS(C)(=O)=O)nn(CC(F)(F)F)c23)c([C@H](Cc2cc(F)cc(F)c2)NC(=O)Cn2nc(C(F)(F)F)c3c2C(F)(F)[C@@H]2C[C@H]32)n1)S(C)(=O)=O [compound of Formula (Ia)] : 141

* * *

experiment: PK of compound of Formula (Ia) after single subcutaneous dose of solution formulations in Wistar Han rats; format: in vivo; details: male, Wistar Han, rat, plasma, sc, 50 mg/kg, mean ± SD, n = 3 rats; SC 50 mg/kg; solution V, 300 mg/mL; read-out: AUC0-336 h
Result type: AUC(0-t) (µM·h)
Your answer should be a plain number; it is taken to be in µM·h.

Measured AUC(0-t), CC(C)(C#Cc1ccc(-c2ccc(Cl)c3c(NS(C)(=O)=O)nn(CC(F)(F)F)c23)c([C@H](Cc2cc(F)cc(F)c2)NC(=O)Cn2nc(C(F)(F)F)c3c2C(F)(F)[C@@H]2C[C@H]32)n1)S(C)(=O)=O [compound of Formula (Ia)] : 50.1

* * *

assay: PK of compound of Formula (Ia) after single subcutaneous dose of solution formulations in Wistar Han rats; assay type: in vivo; settings: male, Wistar Han, rat, plasma, sc, 50 mg/kg, male Wistar Han rats, single SC 50 mg/kg, 400 mg/mL solution AA (6.25% poloxamer 188), mean ± SD, n = 4; read-out: AUC0-24 h
Result type: AUC(0-t) (µM·h)
Your answer should be a plain number; it is taken to be in µM·h.

Measured AUC(0-t), CC(C)(C#Cc1ccc(-c2ccc(Cl)c3c(NS(C)(=O)=O)nn(CC(F)(F)F)c23)c([C@H](Cc2cc(F)cc(F)c2)NC(=O)Cn2nc(C(F)(F)F)c3c2C(F)(F)[C@@H]2C[C@H]32)n1)S(C)(=O)=O [compound of Formula (Ia)] : 3.44

* * *

assay: PK of compound of Formula (Ia) after single subcutaneous dose of solution formulations in beagle dogs; assay type: in vivo; details: male, beagle, dog, plasma, sc, 12 mg/kg, beagle dogs, SC 12 mg/kg, 400 mg/mL solution AA (6.25% poloxamer 188), 840 h, animals #1-#3
Result type: concentration at 840 h (nM)
Your answer should be a plain number; it is taken to be in nM.

Measured concentration at 840 h, `CC(C)(C#Cc1ccc(-c2ccc(Cl)c3c(NS(C)(=O)=O)nn(CC(F)(F)F)c23)c([C@H](Cc2cc(F)cc(F)c2)NC(=O)Cn2nc(C(F)(F)F)c3c2C(F)(F)[C@@H]2C[C@H]32)n1)S(C)(=O)=O` : 103

* * *

assay: PK of compound of Formula (Ia) after single subcutaneous dose of solution formulations in Wistar Han rats; type: in vivo; conditions: male, Wistar Han, rat, plasma, sc, 50 mg/kg, Wistar Han rats, SC 50 mg/kg, 400 mg/mL solution AA (6.25% poloxamer 188), 1.00 h, Mean n = 4
Result type: concentration at 1 h
A complete answer gives the number and then names the unit.

Measured concentration at 1 h, CC(C)(C#Cc1ccc(-c2ccc(Cl)c3c(NS(C)(=O)=O)nn(CC(F)(F)F)c23)c([C@H](Cc2cc(F)cc(F)c2)NC(=O)Cn2nc(C(F)(F)F)c3c2C(F)(F)[C@@H]2C[C@H]32)n1)S(C)(=O)=O [compound of Formula (Ia)] : 35.9 nM
